Procedure details: Viability qHTS for spleen associated tyrosine kinase inhibitor (SYKi) drug resistant MV4-11 cells (AID 1963824); note: nearly all actives have a fitted effect of over 35% in size
Test context: SYKi-resistant MV4-11 viability, CellTiter-Glo, 72 h; series mostly up to 45 µM
Records with an inconclusive call do not appear. The source made the active and inactive calls. Calls come from the whole dose curve; as a rule, active = well fitted cell-killing curve with a large enough effect; inconclusive = small, poorly fitted or top-dose-only effect, or effect the other way; inactive = no such curve, though single readings can be large or run the other way.
One label from this list, please: 1 (yes) = active, 0 (no) = inactive

Q. Assay result, entry C=C(CO)C(=O)O[C@H]1C[C@@]23O[C@@H]2CC/C(=C/[C@H]2OC(=O)C(=C)[C@H]12)CO[C@H]3O — outcome?
A. 1 (yes)

Q. # lookup: test call for C=CC(C)(C)C12Nc3c(ccc4c3OC(C)(C)C=C4)C1(O)CC1C(=O)N3CCCC3C(=O)N12 (centres undefined)
A. 1 (yes)

Q. For this molecule, state the assay outcome: CN1CCN(C2Cc3ccccc3Sc3ccc(Cl)cc32)CC1 (centres undefined)
A. 1 (yes)

Q. Just curious, what result did Cc1ncc(CCCN(C)C)cc1Nc1ncc2c(n1)-c1ccc(C(F)(F)F)cc1NC(=S)C2 get here?
A. 1 (yes)

Q. What was the test verdict on CC1(C)CC[C@]2(C(=O)O)CC[C@]3(C)C(=CCC4[C@@]5(C)CC[C@H](O[C@@H]6O[C@H](C(=O)O)[C@@H](O)[C@H](O)[C@H]6O)C(C)(CO)C5CC[C@]43C)C2C1 (some centres undefined) ?
A. 0 (no)

Q. Can you look up the reported call for CCNC(=O)/C=C/c1cccc(Br)c1 for me?
A. 0 (no)

Q. Could you kindly confirm the outcome this assay logged for C=C1C[C@H](O)[C@@H](O)[C@@]2(C)C1[C@@H](O)[C@H]1OC(=O)C3[C@@H](C)[C@@H](O)[C@H](O)C2[C@]31C (some centres undefined) ?
A. 0 (no)

Q. Which outcome did this test record for the molecule C=C1C(O[C@@H]2O[C@H](CO)[C@@H](O)[C@H](O)[C@@H]2O)CC2C(C)(C)C(O)CCC2(C)C1CC/C(C)=C\CO (some centres undefined) ?
A. 0 (no)

Q. Answer briefly: the call reported for CC(NC(CCc1ccccc1)C(=O)O)C(=O)N1C(=O)N(C)CC1C(=O)O (centres undefined) in this assay.
A. 0 (no)
